target: UniProt E2QF15; experiment: Inhibition of recombinant Escherichia coli MraY by fluorescence based analysis
Sequence (E2QF15 whole entry): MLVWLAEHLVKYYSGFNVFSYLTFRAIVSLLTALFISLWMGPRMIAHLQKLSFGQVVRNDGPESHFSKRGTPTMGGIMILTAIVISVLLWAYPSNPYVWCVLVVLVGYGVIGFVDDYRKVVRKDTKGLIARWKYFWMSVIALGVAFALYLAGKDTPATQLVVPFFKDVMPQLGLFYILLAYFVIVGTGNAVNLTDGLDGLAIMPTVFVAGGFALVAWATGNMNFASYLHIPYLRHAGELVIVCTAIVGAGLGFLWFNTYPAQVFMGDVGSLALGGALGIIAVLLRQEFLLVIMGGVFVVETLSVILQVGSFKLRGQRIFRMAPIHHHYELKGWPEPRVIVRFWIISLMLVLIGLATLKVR
measuredMetric: pIC50
# reply with the number alone; pIC50 is -log10 of concentration in mol/L

## Task Which value of pIC50 has been reported for CC(C)[C@H](NC(=O)N[C@H](C(=O)N[C@H](C(=O)NCCCN[C@@H](C[C@H]1O[C@@H](n2ccc(=O)[nH]c2=O)[C@H](O)[C@@H]1O)C(=O)O)[C@@H](O)C(C)C)[C@@H]1CCNC(=N)N1)C(=O)O in the records?
## Result 5.70

###

molecular target: Decaprenyl-phosphate N-acetylglucosaminephosphotransferase (Mycolicibacterium smegmatis (strain ATCC 700084 / mc(2)155) (Mycobacteriumsmegmatis), UniProt A0R211); assay: Inhibition of Mycobacterium smegmatis ATCC 607 WecA
Sequence (A0R211 whole entry): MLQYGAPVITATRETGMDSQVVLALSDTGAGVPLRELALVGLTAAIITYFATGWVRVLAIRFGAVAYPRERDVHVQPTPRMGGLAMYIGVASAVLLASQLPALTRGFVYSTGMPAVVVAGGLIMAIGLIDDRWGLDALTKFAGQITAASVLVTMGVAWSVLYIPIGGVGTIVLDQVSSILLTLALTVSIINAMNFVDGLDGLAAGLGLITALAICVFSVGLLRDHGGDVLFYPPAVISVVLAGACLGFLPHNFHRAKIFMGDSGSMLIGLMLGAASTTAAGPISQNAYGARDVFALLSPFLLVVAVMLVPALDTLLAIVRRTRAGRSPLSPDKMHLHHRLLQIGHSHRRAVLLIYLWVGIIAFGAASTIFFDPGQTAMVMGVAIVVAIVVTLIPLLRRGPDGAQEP
measuredMetric: pIC50
# reply with the number alone; pIC50 is -log10 of concentration in mol/L

## Task Which value of pIC50 has been reported for CCCCc1ccc(NC(=O)C2=CCN(C)[C@@H]([C@H](O[C@@H]3O[C@H](CN)[C@@H](O)[C@H]3O)[C@H]3O[C@@H](n4ccc(=O)[nH]c4=O)[C@H](O)[C@@H]3O)C(=O)N2C)cc1 in the records?
## Result 7.24
